Please go through the items and note down their IC50.
molecular target: human constitutive proteasome β5c (Homo sapiens); construct: purchased Boston Biochem Inc; experiment: IC50 against chymotryptic β5c activity of human constitutive proteasome (96-well plate, Suc-LLVY-AMC); format: biochemical; settings: β5c; substrate Suc-LLVY-AMC; read-out: IC50 Hu c-20S (Suc-LLVY-AMC)
Give a bare numeral; the unit µM is implied.

For the compound CC(C)(C)NC(=O)C[C@H](NC(=O)CCc1ccc(F)cc1)C(=O)NCCNC(=O)c1ccccn1 , what IC50 is on record?
57.4

Again, but for O=C(CCc1ccc(F)cc1)N[C@@H](CC(=O)NC1(C(F)(F)F)CC1)C(=O)NCCNC(=O)c1cccc(-c2ccccc2)c1
0.165

Then Cc1ccc(S(=O)(=O)N[C@@H](CC(=O)NC(C)(C)C)C(=O)NCCNC(=O)c2cc(-c3cccc(F)c3)ccc2F)cc1 ?
0.42

Continue with CC(C)(C)NC(=O)CC[C@H](NC(=O)CCc1ccccc1)C(=O)NCCNC(=O)c1cccc(-c2ccccc2)c1
0.068
